reported.endpoint: log10 of IC50 (log10 of the value in nM)
log10 IC50, nM

What value of log10 of IC50 on IRAK4 kinase (Homo sapiens) does COc1cc2nn(C3CCN(CC4CCN(CCOc5ccc6c(c5)C(=O)N(C5CCC(=O)NC5=O)C6=O)CC4)CC3)cc2cc1NC(=O)c1cccc(C(F)(F)F)n1 (stereo not shown) [Control group 2, reference compound] have?
1.18

What value of log10 of IC50 on IRAK4 kinase (Homo sapiens) does COc1cc2nn(C3CCN(CCOCCOc4ccc5c(c4)C(=O)N(C4CCC(=O)NC4=O)C5=O)CC3)cc2cc1NC(=O)c1cccc(C(F)(F)F)n1 (stereo not shown) [Control group 1, reference compound] have?
1.65

What value of log10 of IC50 on IRAK4 kinase (Homo sapiens) does `COc1ccc(C(=O)N2CCC3(CCN(CCCN4CCC(n5cc6cc(NC(=O)c7cccc(C(F)(F)F)n7)c(C(C)(C)O)cc6n5)CC4)CC3)CC2)cc1N1CCC(=O)NC1=O` have?
0.78

What value of log10 of IC50 on IRAK4 kinase (Homo sapiens) does `COc1cc2nn([C@H]3CC[C@H](N4CCC5(CCN(C(=O)c6ccc(Cl)c(N7CCC(=O)NC7=O)c6)CC5)CC4)CC3)cc2cc1NC(=O)c1cccc(C(F)(F)F)n1` have?
0.63

What value of log10 of IC50 on IRAK4 kinase (Homo sapiens) does `COc1cc2nn(C3CCN(CCOCCOCCNC(=O)c4ccc(OC)c(N5CCC(=O)NC5=O)c4)CC3)cc2cc1NC(=O)c1cccc(C(F)(F)F)n1` have?
1.02

What value of log10 of IC50 on IRAK4 kinase (Homo sapiens) does `COc1ccc(C(=O)N2CCC(CCCN3CCC(n4cc5cc(NC(=O)c6cccc(C(F)(F)F)n6)c(C(C)(C)O)cc5n4)CC3)CC2)cc1N1CCC(=O)NC1=O` have?
1.07

What value of log10 of IC50 on IRAK4 kinase (Homo sapiens) does `CC(C)(O)c1cc2nn(C3CCN(CCC4CCC5(CC4)CCN(C(=O)c4ccc(Cl)c(N6CCC(=O)NC6=O)c4)CC5)CC3)cc2cc1NC(=O)c1cccc(C(F)(F)F)n1` have?
1.21

What value of log10 of IC50 on IRAK4 kinase (Homo sapiens) does `COc1cc2nn(C3CCN(CCCN4CCN(C(=O)c5ccc(OC)c(N6CCC(=O)NC6=O)c5)CC4)CC3)cc2cc1NC(=O)c1cccc(C(F)(F)F)n1` have?
1.23

What value of log10 of IC50 on IRAK4 kinase (Homo sapiens) does `CCOc1ccc(C(=O)N2CCC3(CCC(CCN4CCC(n5cc6cc(NC(=O)c7cccc(C(F)(F)F)n7)c(C(C)(C)O)cc6n5)CC4)CC3)CC2)cc1N1CCC(=O)NC1=O` have?
1.54

What value of log10 of IC50 on IRAK4 kinase (Homo sapiens) does `CC(C)(O)c1cc2nn(C3CCN(CCC4CCC5(CC4)CCN(C(=O)c4ccc(C(F)(F)F)c(N6CCC(=O)NC6=O)c4)CC5)CC3)cc2cc1NC(=O)c1cccc(C(F)(F)F)n1` have?
1.54
